- test details: Phase I
- Type: in vivo, human
- recorded conditions: human, in vivo, 215 mg, T max, Day 14, 215 mg once daily (n = 3); median, [range]
quantity: Tmax (h)
Answers are plain numbers, in h.

Query: Which Tmax reading was recorded for the compound CN1CCC(COc2cnc(-c3cccc(Cn4nc(-c5cccc(C#N)c5)ccc4=O)c3)nc2)CC1 ?
Response: 8

----------
- test details: Phase I
- Format: in vivo, human
- recorded conditions: human, in vivo, 215 mg, T max, Day 1, 215 mg once daily (n = 3); median, [range]
quantity: Tmax (h)
Give bare numbers, in h.

Query: Look at this compound and give its reported Tmax. CN1CCC(COc2cnc(-c3cccc(Cn4nc(-c5cccc(C#N)c5)ccc4=O)c3)nc2)CC1 [Tepotinib]
Response: 8

----------
- test details: Phase I
- Format: in vivo, human
- recorded conditions: human, in vivo, 300 mg, T max, Day 14, 300 mg once daily (n = 3); median, [range]
quantity: Tmax (h)
Give bare numbers, in h.

Query: Consider the compound shown here: CN1CCC(COc2cnc(-c3cccc(Cn4nc(-c5cccc(C#N)c5)ccc4=O)c3)nc2)CC1 What is its recorded Tmax?
Response: 9.9

----------
- test details: Phase I
- Assay type: in vivo, human
- recorded conditions: human, in vivo, 500 mg, T max, Day 1, 500 mg once daily (n = 6); median, [range]
quantity: Tmax (h)
Give bare numbers, in h.

Query: Query (compound): CN1CCC(COc2cnc(-c3cccc(Cn4nc(-c5cccc(C#N)c5)ccc4=O)c3)nc2)CC1 ; field requested: Tmax
Response: 10

----------
- test details: Phase I
- Type: in vivo, human
- recorded conditions: human, in vivo, 300 mg, T max, Day 1, 300 mg once daily (n = 3); median, [range]
quantity: Tmax (h)
Give bare numbers, in h.

Query: Any idea what its Tmax is? The compound is CN1CCC(COc2cnc(-c3cccc(Cn4nc(-c5cccc(C#N)c5)ccc4=O)c3)nc2)CC1 [Tepotinib]
Response: 8

----------
- test details: Phase I
- Format: in vivo, human
- recorded conditions: human, in vivo, 500 mg, T max, Day 14, 500 mg once daily (n = 5); median, [range]
quantity: Tmax (h)
Give bare numbers, in h.

Query: Form field: reported Tmax of CN1CCC(COc2cnc(-c3cccc(Cn4nc(-c5cccc(C#N)c5)ccc4=O)c3)nc2)CC1
Response: 4.1

The measurements presented in this section are drawn from paper PMC7401714.
